Measured pIC50 accompanies every entry in the list below.
# measurement.target: KRAS G12D-GTP & cRAF (Homo sapiens (Human), UniProt P01116, G12D)
# Sequence (P01116-2 other isoform, or with tags, fused parts or gaps G12D): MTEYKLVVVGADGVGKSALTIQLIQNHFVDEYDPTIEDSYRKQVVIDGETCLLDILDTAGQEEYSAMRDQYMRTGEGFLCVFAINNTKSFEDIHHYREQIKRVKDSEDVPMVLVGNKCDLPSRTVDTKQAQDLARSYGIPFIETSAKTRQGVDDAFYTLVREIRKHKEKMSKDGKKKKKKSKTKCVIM
# method.description: KRAS G12D/cRAF binding experiment (HTRF)
# experimental.setup: competitive binding
Expect pIC50 as a plain number equal to -log10 of the molar concentration.

C#Cc1nc(-c2cc(O)cc3cccc(Cl)c23)c(F)c2nc(OC[C@@]34CCCN3C[C@H](F)C4)nc(N3CC4CCC(C3)N4)c12 ... 8.27
C#Cc1c(F)ccc2cc(O)cc(-c3nc(C#CCCC#N)c4c(N5CC6CCC(C5)N6)nc(OC[C@@]56CCCN5C[C@H](F)C6)nc4c3F)c12 ... 7.61
C#Cc1c(F)ccc2cc(O)cc(-c3nc(C#C)c4c(N5C[C@@H]6C[C@H]5CN6)nc(OC[C@@]56CCCN5C[C@H](F)C6)nc4c3F)c12 ... 7.82
C#Cc1c(F)ccc2cc(O)cc(-c3nc(C#CCCC(C)C)c4c(N5CC6CCC(C5)N6)nc(OC[C@@]56CCCN5C[C@H](F)C6)nc4c3F)c12 ... 8.06
C#Cc1c(F)ccc2cc(O)cc(-c3nc(C#C)c4c(N5CC6CCC(C5)N6)nc(OC[C@H]5CCCN5C)nc4c3F)c12 ... 7.72

Now for the compound whose pIC50 we want.
Look at this compound and give its reported pIC50. "[2H]C([2H])([2H])c1nc(-c2cc(O)cc3ccc(F)c(C#C)c23)c(F)c2nc(OC[C@@]34CCCN3C[C@H](F)C4)nc(N3CC4CCC(C3)N4)c12" 8.04

---

# method.description: in vivo
# Parameters: species or system BALB/c mice
# experimental.setup: BALB/c, mouse, mice, intravenous, 2 mg/kg, read-out: AUClast
# From the text: The inventors performed a pharmacokinetic evaluation of the compounds of the present invention in mice. […]
measurement.name: AUC(0-t) (ng·h/mL)
Output spec: scalar in ng·h/mL, unitless text.

Any idea what AUC(0-t) was measured for "C#Cc1c(F)ccc2cc(O)cc(-c3nc(C#C)c4c(N5CC6CCC(C5)N6)nc(OC[C@@]56CCCN5C[C@H](F)C6)nc4c3F)c12" ? 2140

---

# method.description: Stability in mouse liver microsomes
# Assay type: in vitro ADME
# experimental.setup: mouse, microsomes, pH 7.4
measurement.name: half-life at 1 μM (h)
Numbers only here, please. The scale is h.

C#Cc1c(F)ccc2cc(O)cc(-c3nc(C#CCCCC)c4c(N5CC6CCC(C5)N6)nc(OC[C@@]56CCCN5C[C@H](F)C6)nc4c3F)c12 ... 1.7

So what does the record say about half-life at 1 μM for "C#Cc1c(F)ccc2cc(O)cc(-c3nc(C#C)c4c(N5CC6CCC(C5)N6)nc(OCC56CCCN5CCC6)nc4c3F)c12" ? 2.86

---

# method.description: Stability in human liver microsomes
# Type: in vitro ADME
# experimental.setup: human, microsomes, pH 7.4
measurement.name: half-life at 1 μM
I'd appreciate it if you wrote the number followed by its unit.

C#Cc1c(F)ccc2cc(O)cc(-c3nc(C#C)c4c(N5CC6CCC(C5)N6)nc(OCC56CCCN5CCC6)nc4c3F)c12 ... 5.2 h

Consider the molecule "C#Cc1c(F)ccc2cc(O)cc(-c3nc(C#CCCCC)c4c(N5CC6CCC(C5)N6)nc(OC[C@@]56CCCN5C[C@H](F)C6)nc4c3F)c12" and give its measured half-life at 1 μM. 1.52 h
